METHOD DESCRIPTION: Cytotoxicity against human MT4 cells measured after 5 days by MTT assay
Assay type: cell-based
Give CC50 at 120 h for every item shown.
One number for each entry, in µM.

Value sought for every listed compound: CC50 at 120 h.
1. Cc1cccc(NC2=Nc3ccc(Cl)cc3C(C#CC3CC3)(C(F)(F)F)N2)c1 (stereo unspecified)
2. Cc1ccccc1NC1=Nc2ccc(Cl)cc2C(C#CC2CC2)(C(F)(F)F)N1 (stereo unspecified)

2.1
4.1

Value sought for every listed compound: CC50 at 120 h.
1. NC(=O)c1ccc(NC2=Nc3ccc(Cl)cc3C(C#CC3CC3)(C(F)(F)F)N2)cc1 (stereo unspecified)
2. COc1ccccc1NC1=Nc2ccc(Cl)cc2C(C#CC2CC2)(C(F)(F)F)N1 (stereo unspecified)

12
8.6

----------
METHOD DESCRIPTION: Selectivity index, ratio of CC50 for human MT4 cells to EC50 for HIV-1 3B infected in MT4 cells
Type: toxicity, cell-based
DETAILS: HIV-1 3B infected MT4 cells, read-out: Ratio CC50/EC50
Would you mind labelling by selectivity ratio? At or over 30 is Yes, under is No.

- MOLECULE: "Cc1ccc(NC2=Nc3ccc(Cl)cc3C(C#CC3CC3)(C(F)(F)F)N2)cc1 (stereo not given)"
  CAT: "No"
- MOLECULE: "Fc1cccc(NC2=Nc3ccc(Cl)cc3C(C#CC3CC3)(C(F)(F)F)N2)c1 (stereo not given)"
  CAT: "No"
- MOLECULE: "FC(F)(F)C1(C#CC2CC2)NC(Nc2ccc(Cl)c(Cl)c2)=Nc2ccc(Cl)cc21 (stereo not given)"
  CAT: "Yes"
- MOLECULE: "FC(F)(F)c1cccc(NC2=Nc3ccc(Cl)cc3C(C#CC3CC3)(C(F)(F)F)N2)c1 (stereo not given)"
  CAT: "Yes"

In plain terms: is recorded selectivity ratio at least 30 for FC(F)(F)C1(C#CC2CC2)NC(Nc2ccccc2Br)=Nc2ccc(Cl)cc21 (stereo not given) ?
Yes

In plain terms: is recorded selectivity ratio at least 30 for FC(F)(F)C1(C#CC2CC2)NC(Nc2cccc(Cl)c2)=Nc2ccc(Cl)cc21 (stereo not given) ?
No

----------
METHOD DESCRIPTION: Selectivity index, ratio of CC50 for human MT4 cells to EC50 for HIV-1 3B infected in MT4 cells
Type: toxicity, cell-based
DETAILS: HIV-1 3B infected MT4 cells, read-out: Ratio CC50/EC50
Give selectivity ratio for every item shown.
One number for each entry.

// known answers, use as guide
- MOLECULE: "NC(=O)c1ccc(NC2=Nc3ccc(Cl)cc3C(C#CC3CC3)(C(F)(F)F)N2)cc1 (stereo not given)"
  selectivity ratio: 58
- MOLECULE: "Cc1cc(C)cc(NC2=Nc3ccc(Cl)cc3C(C#CC3CC3)(C(F)(F)F)N2)c1 (stereo not given)"
  selectivity ratio: 6

Value sought for every listed molecule: selectivity ratio.
1. FC(F)(F)C1(C#CC2CC2)NC(Nc2cccc(Br)c2)=Nc2ccc(Cl)cc21 (stereo not given)
2. Fc1ccccc1NC1=Nc2ccc(Cl)cc2C(C#CC2CC2)(C(F)(F)F)N1 (stereo not given)
3. COc1ccc(NC2=Nc3ccc(Cl)cc3C(C#CC3CC3)(C(F)(F)F)N2)cc1 (stereo not given)

[14, 31, 32]

----------
METHOD DESCRIPTION: Cytotoxicity against human MT4 cells measured after 5 days by MTT assay
Type: cell-based
I'd appreciate it if you marked entries true (1) when CC50 at 120 h is lower than 2 µM and false (0) when it is not.

Known results for molecules:
- MOLECULE: "COc1ccc(NC2=Nc3ccc(Cl)cc3C(C#CC3CC3)(C(F)(F)F)N2)cc1 (stereo not given)"
  CAT: "false (0)"
- MOLECULE: "FC(F)(F)C1(C#CC2CC2)NC(Nc2ccc(Cl)c(Cl)c2)=Nc2ccc(Cl)cc21 (stereo not given)"
  CAT: "false (0)"
- MOLECULE: "FC(F)(F)C1(C#CC2CC2)NC(Nc2ccccc2Br)=Nc2ccc(Cl)cc21 (stereo not given)"
  CAT: "false (0)"
- MOLECULE: "Fc1ccccc1NC1=Nc2ccc(Cl)cc2C(C#CC2CC2)(C(F)(F)F)N1 (stereo not given)"
  CAT: "false (0)"
- MOLECULE: "Fc1ccc(NC2=Nc3ccc(Cl)cc3C(C#CC3CC3)(C(F)(F)F)N2)cc1Cl (stereo not given)"
  CAT: "true (1)"

Check if CC50 at 120 h falls below 2 µM for O=[N+]([O-])c1cccc(NC2=Nc3ccc(Cl)cc3C(C#CC3CC3)(C(F)(F)F)N2)c1 (stereo not given) .
true (1)

Check if CC50 at 120 h falls below 2 µM for FC(F)(F)C1(C#CC2CC2)NC(Nc2ccccc2)=Nc2ccc(Cl)cc21 (stereo not given) .
false (0)

Check if CC50 at 120 h falls below 2 µM for COc1cccc(NC2=Nc3ccc(Cl)cc3C(C#CC3CC3)(C(F)(F)F)N2)c1 (stereo not given) .
false (0)
